system: SW480 colon cancer cells; assay: MTT toxicity to tumor cells, under light and in the dark; type: cell-based; conditions: Homo sapiens, SW480; under light, 450-480 nm laser, 110 mW/cm^2, 900 s
reported.property: IC50 (µM)

- CC(=O)C(=O)O [BJMU-208]: 173
- CC(=O)C(C)=O [BJMU-204]: 0.6
- O=C(O)C(=O)c1ccccc1 [BJMU-207]: 99.2
- CCC(=O)C(=O)CC [BJMU-201]: 63.9
- O=C(C(=O)c1ccccc1)c1ccccc1 [BJMU-209]: 7800
- COc1ccc(C(=O)C(=O)c2ccc(OC)cc2)cc1 [BJMU-213]: 6600
- CCCC(=O)C(C)=O [BJMU-202]: 2.5

---

test system: SW480 colon cancer cells; assay: MTT toxicity to tumor cells, under light and in the dark; type: cell-based; conditions: Homo sapiens, SW480; under light, 450-480 nm laser, 110 mW/cm^2, 900 s
Readings of IC50 for the listed compounds
reported.property: IC50 (µM)

- CC(=O)C(=O)CC(C)C: 144
- O=C(C(=O)c1ccc(F)cc1)c1ccc(F)cc1: 2800
- O=C(C(=O)c1ccncc1)c1ccncc1: 9600
- O=C(C(=O)c1ccco1)c1ccco1: 8900
- CCCCC(=O)C(C)=O: 6.4
- CC(=O)C(=O)CBr: 3.1
- O=C(C(=O)c1ccc(Br)cc1)c1ccc(Br)cc1: 3200

---

system: B16 melanoma cell; assay: MTT toxicity to tumor cells, under light and in the dark; assay type: cell-based; conditions: Mus musculus, under light, 450-480 nm laser, 110 mW/cm^2, 900 s
reported.property: log10 IC50 (log10 of the value in µM)

• CC(=O)C(=O)O = 2.24
• O=C(O)C(=O)c1ccccc1 = 1.98
• CC(=O)C(=O)CBr = 0.43
• CCCC(=O)C(C)=O = 0.46
• O=C(C(=O)c1ccco1)c1ccco1 = 3.95
• CC(=O)C(C)=O = -0.30
• CCCCC(=O)C(C)=O = 0.82
• O=C(C(=O)c1ccncc1)c1ccncc1 = 3.99
• CC(=O)C(=O)CC(C)C = 2.16

---

system: Escherichia coli; assay: Inhibitory effect on bacteria (colony counting), under light and in the dark; type: cell-based; settings: 60 mM, 450-480 nm laser, 15 mW/cm^2, 200 s, read-out: Inhibition rate under light
Cut-off 50% on inhibition at 60000 µM, inclusive. At or above means met; below means not met.

* CC(=O)C(=O)CBr | met
* CC(=O)C(=O)O | not met
* CC(=O)C(C)=O | met
* O=C(C(=O)c1ccco1)c1ccco1 | not met
* CC(=O)C(=O)CC(C)C | not met
* O=C(C(=O)c1ccncc1)c1ccncc1 | not met
* CCCC(=O)C(C)=O | met
* CCCCC(=O)C(C)=O | met
* O=C(O)C(=O)c1ccccc1 | met

---

system: Escherichia coli; test: Inhibitory effect on bacteria (colony counting), under light and in the dark; format: cell-based; conditions: 60 mM, in the dark, read-out: Inhibition rate in the dark
reported.property: inhibition at 60000 µM

* O=C(O)C(=O)c1ccccc1 [BJMU-207] | 7.3%
* CC(=O)C(=O)CBr [BJMU-203] | 4.5%
* CC(=O)C(=O)CC(C)C [BJMU-206] | 11.5%
* CC(=O)C(C)=O [BJMU-204] | 10.3%
* O=C(C(=O)c1ccco1)c1ccco1 [BJMU-214] | 5.6%
* CCCCC(=O)C(C)=O [BJMU-205] | 2%
* CCCC(=O)C(C)=O [BJMU-202] | 8.6%
* O=C(C(=O)c1ccncc1)c1ccncc1 [BJMU-210] | 6.4%
* CC(=O)C(=O)O [BJMU-208] | 8%
